# measurementNotes: viability loss with induced miR-34 in A549 – imaging, A549 dox-inducible miR-34, nuclei and caspase counts, primary screen (AID 1347080); note: test concentration not given here
# protocolConditions: A549 miR-34 inducible, Hoechst nuclei count, 48 h; measured here: total cells with miR-34 induction; stronger effect = lower value
Where a SMILES comes first, the peptide text is derived from it.
quantityMeasured: cell count

Give its cell count value. Item: COc1ccc2c3c1OC1CC(O)C=C[C@@]31CCN(C)C2 (some centres undefined)
9660

Now this one: "O=C1Cc2c([nH]c3ccc(Br)cc23)-c2ncccc2N1"
2970

Now this one: C=CC(=O)N1CCCC(n2nc(-c3ccc(Oc4ccccc4)cc3)c3c(N)ncnc32)C1 (centres undefined)
7670

Now this one: CC1(C)CCC(c2ccc(Cl)cc2)=C(CN2CCN(c3ccc(C(=O)NS(=O)(=O)c4ccc(NC(CCN5CCOCC5)CSc5ccccc5)c(S(=O)(=O)C(F)(F)F)c4)cc3)CC2)C1 (centres undefined)
4260

Now this one: COC(=O)C(CCCN=C(N)N)NS(=O)(=O)c1ccc(C)cc1 (centres undefined)
8520

Now this one: CC(C)CC(NC(=O)CNC(=O)c1cc(Cl)ccc1Cl)B1OC(=O)CC(CC(=O)O)(C(=O)O)O1 (centres undefined)
1600

Now this one: C[C@H]1CC[C@H]2[C@@H](C)C(OC(=O)CCC(=O)O)O[C@H]3O[C@@]4(C)CC[C@@H]1[C@]32OO4 (some centres undefined)
4220

Now this one: CC(C)c1c(C(=O)Nc2ccccc2)c(-c2ccccc2)c(-c2ccc(F)cc2)n1CCC(O)CC(O)CC(=O)O (centres undefined)
5220

Now this one: "Cc1cc(C)c(S(=O)(=O)n2cc(C)cc2C)c(C)c1"
7540

Now this one: "COc1ccc(CCCOc2cc(CCn3ccnc3)ccc2OC)cc1"
3260

Now this one: "COc1ccccc1S(=O)(=O)Nc1ccc2c(c1)CN(C)C(=O)N2"
6410

Now this one: COC(=O)C(Cc1ccccc1)NC(=O)C(N)CC(=O)O (stereo not drawn) (H-Asp-Phe-OMe; configuration not given here)
8220

Now this one: "CCCCC[C@@H](O)/C=C/[C@H]1[C@H](C/C=C\CCCC(=O)O)[C@H](O)C[C@@H]1O"
6980

Now this one: C=C[C@H]1CN2CCC1C[C@H]2[C@H](O)c1ccnc2ccc(OC)cc12 (some centres undefined)
8290
